Test: folding enthalpy; higher = less favourable; fluorescence melt of hairpins on a sequencing array, two-state fit
Conditions: sodium 0.088 M
Readout label: folding enthalpy (kcal/mol)
Give the value in kcal/mol but do not write kcal/mol after it.

Would you please look over these solved cases?
INSERT INTO assay_data (sequence_record, readout_label, numeric_value) VALUES
  ('GATCAAGCGATTGATC ((((((....))))))', 'folding enthalpy', -39.6),
  ('GTTTAGGGAAACCTGAAC (((.(((....))).)))', 'folding enthalpy', -34.8),
  ('GATCCTCGCGAGGATC ((((((....))))))', 'folding enthalpy', -43.4),
  ('GCGCAAGGAAACTTGTGC ((.((((....)))).))', 'folding enthalpy', -48.9),
  ('GGTCAAGGAAACTTGACC (((((((....)))))))', 'folding enthalpy', -43);

Please turn your attention to the following entry.
Quick one: folding enthalpy for GCACGGCGAAAGCCCCGC ((..(((....)))..)) ?
-8.33

====

Test: melting temperature; fluorescence melt of hairpins on a sequencing array, two-state fit, raised by 9.35 °C to match UV melts
Details: sodium 0.088 M
Readout label: Tm
In your response, the unit should come after the numeric value.

INSERT INTO measurements (sequence_record, result) VALUES
  ('ATGCGGAAACGCAT (((((....)))))', '57.7 °C'),
  ('TGCAAGAAATTGCA (((((....)))))', '39.7 °C'),
  ('GGCATCGGAAACGATACC ((.((((....)))).))', '45.6 °C'),
  ('GCGAGGCTCGC ((((...))))', '52.8 °C'),
  ('GATCGTCGCCACGATC ((((((....))))))', '53.8 °C');

Quick one: Tm for GGGATTGGAAACAATCTC (.(((((....))))).) ?
45.3 °C

And what about the sequence GATCCGATGTCGGATC ((((((....)))))) ?
61.6 °C

====

Assay: folding enthalpy; higher = less favourable; fluorescence melt of hairpins on a sequencing array, two-state fit
Conditions: sodium 0.088 M
Binary classification by folding enthalpy, with -20 kcal/mol as an inclusive lower bound for t; all other cases are f.

Would you please look over these solved cases?
INSERT INTO assay_data (sequence_record, assigned_label) VALUES
  ('GACTAGGGAAACCCAGTC ((((.((....)).))))', 'f'),
  ('GGGAAACGAAAGTTCCCC (((.(((....))).)))', 'f'),
  ('GGGCACGGAAACGTGCTC (.(((((....))))).)', 't');

Please tell me: is the sequence GGGTACGAAAGTAGCCC ((((((....))).))) at or over -20 kcal/mol in terms of folding enthalpy?
f

And what about the sequence GTCATGGGAAACTATGGC (.(((.(....).))).) ?
f

And what about the sequence GCACTCGAAAGAGGGTGC ((((((....)))..))) ?
f

And what about the sequence GAGTGCGAAAGCATTCTC ((((((....)))..))) ?
f

And what about the sequence GCGGGGCGAAAGCTCAGC ((.(.((....)).).)) ?
f

And what about the sequence GCTAAGCGAAAGCTGTGC ((..(((....)))..)) ?
t

And what about the sequence GATCGTTAGACGATC ((((((...)))))) ?
f

And what about the sequence GTTTGGGGAAACTCAAGC (.(((.(....).))).) ?
t

And what about the sequence GGATGGGAAACCATCC ((((((....)))))) ?
f
